Tested on: HepG2
test details: Cytotoxicity against human HepG2 cells after 48 hrs by MTT assay
Format: functional, cell-based
measurement conditions: Homo sapiens, HepG2, 48 h; read-out: IC50
Please provide measured IC50 for the entries that follow.
Give bare numbers, in µM.

{"compound": "CC1=NN(C(=O)CCc2ccccc2)C(c2ccccc2O)C1 (stereo not drawn)", "unit abbreviation": "µM", "test value": 20.6}

Provide IC50 values for the following items, in order.
1. CCCCN(CCCC)CC(=O)N1N=C(c2cc3ccccc3oc2=O)CC1c1ccccc1 (stereo not drawn)
2. CC1=NN(C(=O)CN2CCC(Cl)CC2)C(c2ccccc2O)C1 (stereo not drawn)
3. CCN(CC)C1CCN(CC(=O)N2N=C(c3cc4ccccc4oc3=O)CC2c2ccccc2)CC1 (stereo not drawn)
4. CC1=NN(C(=O)/C=C/c2ccccc2)C(c2ccccc2O)C1 (stereo not drawn)
5. CCN(CC)CC(=O)N1N=C(C)CC1c1ccccc1O (stereo not drawn)
6. COc1ccc(NCC(=O)N2N=C(C)CC2c2ccccc2O)cc1 (stereo not drawn)

Data returned:
[2.45, 42.1, 19.3, 29, 51.6, 39.1]

Provide IC50 values for the following items, in order.
1. CC1=NN(S(=O)(=O)c2ccc(C)cc2)C(c2cc(Br)ccc2O)C1 (stereo not drawn)
2. O=C(CNC1CCCCC1)N1N=C(c2cc3ccccc3oc2=O)CC1c1ccccc1 (stereo not drawn)
3. COc1ccccc1C1CC(C)=NN1C(=O)CN(C(C)C)C(C)C (stereo not drawn)
4. O=C(CN1CCCC1)N1N=C(c2cc3ccccc3oc2=O)CC1c1ccccc1 (stereo not drawn)
5. CCN(CC)CC(=O)N1N=C(C)CC1c1ccccc1OC(C)=O (stereo not drawn)
6. COc1ccccc1C1CC(C)=NN1C(=O)C[N+]1(C)CCCC1 (stereo not drawn)
7. CC1=NN(C(=O)CN2CCCCC2)C(c2ccccc2O)C1 (stereo not drawn)

Data returned:
[20.8, 34.4, 8.4, 44.3, 33.2, 32.2, 3.02]

Provide IC50 values for the following items, in order.
1. CC1=NN(C(=O)CCc2ccccc2)C(c2cc(Br)cc(Br)c2O)C1 (stereo not drawn)
2. CC1=NN(C(=O)CCl)C(c2cc(Br)cc(Br)c2O)C1 (stereo not drawn)
3. CC(=O)Oc1ccccc1C1CC(C)=NN1C(=O)CN1CCC(C(C)=O)CC1 (stereo not drawn)
4. CCCN(CCC)CC(=O)N1N=C(C)CC1c1cc(Br)ccc1O (stereo not drawn)
5. CCC(=O)N1N=C(C)CC1c1cc(Br)cc(Br)c1O (stereo not drawn)
6. CC(C)CNCC(=O)N1N=C(c2cc3ccccc3oc2=O)CC1c1ccccc1 (stereo not drawn)

Data returned:
[9.17, 3.35, 7.8, 9.81, 41.4, 9.97]

Provide IC50 values for the following items, in order.
1. COc1cccc2c1C(=O)c1c(O)c3c(c(O)c1C2=O)C[C@@](O)(C(=O)CO)C[C@@H]3O[C@H]1C[C@H](N)[C@H](O)[C@H](C)O1
2. O=C(CN1CCOCC1)N1N=C(c2cc3ccccc3oc2=O)CC1c1ccccc1C(F)(F)F (stereo not drawn)
3. CC(C)(C)OC(=O)N1CCN(CC(=O)N2N=C(c3cc4ccccc4oc3=O)CC2c2ccccc2)CC1 (stereo not drawn)

Data returned:
1.34
21
28.4
